Reference source: a collection of fitness landscapes (doi:10.1126/science.1257360)

Field: enrichment ratio. Provide a value for each of the variants that follow.
B1: PhoQ; a variant is named by its letters at X, in order, P23837 (parent)
chain: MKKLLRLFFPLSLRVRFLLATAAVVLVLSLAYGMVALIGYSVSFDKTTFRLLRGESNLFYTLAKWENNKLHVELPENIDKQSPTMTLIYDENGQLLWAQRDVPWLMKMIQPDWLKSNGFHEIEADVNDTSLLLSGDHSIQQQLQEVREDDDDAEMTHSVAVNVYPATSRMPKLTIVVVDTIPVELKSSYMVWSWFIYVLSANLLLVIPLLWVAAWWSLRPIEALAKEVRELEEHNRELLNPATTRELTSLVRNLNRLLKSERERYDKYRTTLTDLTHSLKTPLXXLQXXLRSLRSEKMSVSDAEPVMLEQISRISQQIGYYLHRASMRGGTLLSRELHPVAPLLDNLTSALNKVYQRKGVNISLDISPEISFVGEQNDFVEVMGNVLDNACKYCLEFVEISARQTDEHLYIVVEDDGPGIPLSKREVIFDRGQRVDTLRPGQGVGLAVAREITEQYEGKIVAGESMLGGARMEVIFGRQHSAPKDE

variants of: B1; experiment: enrichment ratio after two sorts for PhoP signalling (ratio (wild type AVST 3.29)); higher = more functional; details: with PhoP (E. coli)
In all, about 140,000 sequences were measured (“enrichment ratio after two sorts for PhoP signalling”: median about 0, highest 2% from about 11 on). Many of the other results were omitted from the sample, so the highest values are more common in it than they were.

Look up enrichment ratio: `STQV` 2.63

Look up enrichment ratio: `EVHQ` ≤ 0.25

Look up enrichment ratio: `IYDI` ≤ 0.25

Look up enrichment ratio: `MEHT` 24.2

Look up enrichment ratio: `YTHV` ≤ 0.25

Look up enrichment ratio: `NVHV` ≤ 0.25

Look up enrichment ratio: `TTIV` 0.549

Look up enrichment ratio: `TTMV` 28.9

Look up enrichment ratio: `VPLT` ≤ 0.25

Look up enrichment ratio: `TTHV` 14.6

Look up enrichment ratio: `ANPI` ≤ 0.25

Look up enrichment ratio: `MVGW` ≤ 0.25

Look up enrichment ratio: `KLHT` ≤ 0.25

Look up enrichment ratio: `ANHE` ≤ 0.25

Look up enrichment ratio: `GANW` ≤ 0.25

Look up enrichment ratio: `FVHV` 12.9

Look up enrichment ratio: `SDRC` ≤ 0.25

Look up enrichment ratio: `AGID` ≤ 0.25

Look up enrichment ratio: `TGII` ≤ 0.25

Look up enrichment ratio: `ADSE` ≤ 0.25

Look up enrichment ratio: `TPTL` ≤ 0.25

Look up enrichment ratio: `LKQC` ≤ 0.25

Look up enrichment ratio: `WSCA` ≤ 0.25

Look up enrichment ratio: `NEHT` ≤ 0.25

Look up enrichment ratio: `RFSN` 0.949

Look up enrichment ratio: `RMYK` ≤ 0.25

Look up enrichment ratio: `FDHV` ≤ 0.25

Look up enrichment ratio: `GMHA` ≤ 0.25

Look up enrichment ratio: `VKSA` ≤ 0.25

Look up enrichment ratio: `YYHT` ≤ 0.25

Look up enrichment ratio: `IISF` ≤ 0.25

Look up enrichment ratio: `FSHV` ≤ 0.25

Look up enrichment ratio: `ANIE` ≤ 0.25

Look up enrichment ratio: `YTQV` ≤ 0.25

Look up enrichment ratio: `IASQ` ≤ 0.25

Look up enrichment ratio: `WDMR` ≤ 0.25

Look up enrichment ratio: `QEHT` 9.94

Look up enrichment ratio: `NMRI` ≤ 0.25

Look up enrichment ratio: `SDIC` 15.1

Look up enrichment ratio: `ANCA` 44.6

Look up enrichment ratio: `MGKS` ≤ 0.25

Look up enrichment ratio: `ELGT` ≤ 0.25
